tested on: HL-60(TB) leukemia; assay: NCI-60 one-dose screen, 48 h; settings: 10 µM unless noted
About 83,000 compounds went through this panel and 20% of them were active in at least one assay; those are over-represented in the sample as a whole. Activity calls are given as the source filed them. How the source made its calls: active means growth percent below 10; inactive means the rest.
One label from this list, please: true for active, false for inactive

INSERT INTO measurements (molecule, study_target, label_value) VALUES
  ('CC1(C)CC[C@]2(C(=O)O)CC[C@]3(C)C(=CC[C@@H]4[C@@]5(C)C/C(=C/c6cccnc6)[C@H](O)C(C)(C)[C@@H]5CC[C@]43C)[C@@H]2C1', 'HL-60(TB) leukemia', 'true'),
  ('COc1ccc(N2CCN(Cc3cc(C(=O)/C=C/c4c[nH]c5ccccc45)ccc3O)CC2)cc1', 'HL-60(TB) leukemia', 'false'),
  ('C[C@H](NC(=O)c1snnc1C1CC1)c1c(F)cccc1Cl', 'HL-60(TB) leukemia', 'false');

What call does the record list for CC(C)C1c2ccc(O)cc2Oc2nc(N)c(C#N)c(N)c21 (centres undefined) ?
false

What call does the record list for "CSC1=Nc2c(c(C)c(-c3ccccc3)n2CCCN2CCCCC2)C2=NC(=O)C[C@H](C)N12" ?
true

What call does the record list for "N#C/C(=C/c1ccc(O)c([N+](=O)[O-])c1)c1nc(-c2ccc([N+](=O)[O-])cc2)cs1" ?
false

What call does the record list for "CC(=O)Oc1ccccc1C(=O)N=C1[Se]CCN1C(=O)c1ccccc1OC(C)=O" ?
true

What call does the record list for "CCOCC[P+](c1ccccc1)(c1ccccc1)c1ccccc1" ?
false

What call does the record list for OC(CNC1CCCCC1)Cn1c2ccc(I)cc2c2cc(I)ccc21 (centres undefined) ?
false

Reference source: PubChem BioAssay (NCI)
